# collection of Ki values tested on Cannabinoid receptor 1 (Homo sapiens)
# Sequence (P21554 whole entry): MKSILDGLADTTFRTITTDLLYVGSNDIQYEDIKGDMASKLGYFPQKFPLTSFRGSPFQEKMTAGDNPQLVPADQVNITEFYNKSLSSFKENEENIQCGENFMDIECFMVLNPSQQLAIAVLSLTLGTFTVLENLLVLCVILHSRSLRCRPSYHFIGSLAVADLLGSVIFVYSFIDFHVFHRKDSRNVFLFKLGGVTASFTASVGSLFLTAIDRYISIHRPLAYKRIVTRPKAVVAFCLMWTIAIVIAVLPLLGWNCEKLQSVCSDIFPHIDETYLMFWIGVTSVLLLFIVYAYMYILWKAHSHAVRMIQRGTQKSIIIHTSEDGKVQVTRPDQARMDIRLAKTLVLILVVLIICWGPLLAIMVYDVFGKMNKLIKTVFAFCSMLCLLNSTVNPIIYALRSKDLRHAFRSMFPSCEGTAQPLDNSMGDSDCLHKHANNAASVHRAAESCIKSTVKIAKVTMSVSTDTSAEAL

Kindly state the measured Ki obtained for `Cc1cc(C(=O)NCCc2ccccc2)c(C)n1-c1ccccc1` with Cannabinoid receptor 1 (Homo sapiens). 5.93 µM

Follow-up item: `CCOC(=O)c1c(NS(=O)(=O)c2ccccc2)sc2c1CCCC2` > 10 µM

Follow-up item: `CCc1c(C(=O)NC23CC4CC(CC(C4)C2)C3)cc(C)n1-c1ccccc1` 1.2 µM

Follow-up item: CCc1c(C(=O)NC(C)c2ccccc2)cc(C)n1-c1ccccc1 (stereo not drawn) 3.74 µM

Follow-up item: `CCOC(=O)c1cc(-c2ccccc2)sc1N(S(=O)(=O)c1ccc2ccccc2c1)S(=O)(=O)c1ccc2ccccc2c1` > 10 µM

Follow-up item: `CCOC(=O)c1c(NS(=O)(=O)c2ccc3ccccc3c2)sc2c1CCCC2` > 10 µM

Follow-up item: `CCOC(=O)c1c(NC(=O)c2ccc3ccccc3c2)sc2c1CCCC2` > 10 µM

Follow-up item: `CCOC(=O)c1c(NC(=O)C23CC4CC(CC(C4)C2)C3)sc2c1CCCC2` 1.01 µM

Follow-up item: `CCOC(=O)c1cc(-c2ccccc2)sc1NS(=O)(=O)c1ccc(Cl)cc1` > 10 µM

Follow-up item: `CCOC(=O)c1c(NC(=O)c2cccc3ccccc23)sc2c1CCCC2` 1.37 µM

---
Kindly state the measured Ki obtained for `CCOC(=O)c1c(NS(C)(=O)=O)sc2c1CCCC2` with Cannabinoid receptor 1 (Homo sapiens). > 10 µM

Follow-up item: Cc1cc(C(=O)NC(C)c2ccccc2)c(C)n1-c1ccccc1 (stereo not drawn) 2.62 µM

Follow-up item: `CCOC(=O)c1cc(-c2ccccc2)sc1NS(C)(=O)=O` > 10 µM

Follow-up item: `Cc1cc(C(=O)NC2CCCCC2)c(C)n1-c1ccccc1` > 10 µM

Follow-up item: `Cc1cc(C(=O)Nc2cccc3ccccc23)c(C)n1-c1ccccc1` 0.317 µM

Follow-up item: `CCc1c(C(=O)Nc2ccc3ccccc3c2)cc(C)n1-c1ccccc1` 0.633 µM

Follow-up item: `Cc1cc(C(=O)O)c(C)n1-c1ccccc1` > 10 µM

Follow-up item: `CCOC(=O)c1cc(-c2ccccc2)sc1NC(=O)c1ccc2ccccc2c1` > 10 µM

Follow-up item: `CCOC(=O)c1c(NC(=O)CCc2ccccc2)sc2c1CCCC2` > 10 µM

Follow-up item: `CCOC(=O)c1cc(-c2ccccc2)sc1NS(=O)(=O)c1cccc2ccccc12` > 10 µM

Follow-up item: `CCc1c(C(=O)O)cc(C)n1-c1ccccc1` > 10 µM

Follow-up item: `CCOC(=O)c1cc(-c2ccccc2)sc1NC(=O)c1cccc2ccccc12` > 10 µM

Follow-up item: `CCOC(=O)c1c(NS(=O)(=O)c2ccc(Cl)cc2)sc2c1CCCC2` > 10 µM
